test method notes: Compound was evaluated for the ionization constant (pKa) by using potentiometric titration (ionization of end group)
Type: physicochemical

[
  {
    "record smiles": "CC(C)/N=C/Nc1ccc(-c2c[nH]cn2)cc1.Cl",
    "pKa": 8.88
  },
  {
    "record smiles": "NCCc1c[nH]cn1",
    "pKa": 9.81
  },
  {
    "record smiles": "CN/C(=N\\CCSCc1nc[nH]c1C)NC#N",
    "pKa": -0.4
  }
]

* * *

target: Histamine H2 receptor (Cavia porcellus) (UniProt P47747)
Sequence (P47747 whole entry): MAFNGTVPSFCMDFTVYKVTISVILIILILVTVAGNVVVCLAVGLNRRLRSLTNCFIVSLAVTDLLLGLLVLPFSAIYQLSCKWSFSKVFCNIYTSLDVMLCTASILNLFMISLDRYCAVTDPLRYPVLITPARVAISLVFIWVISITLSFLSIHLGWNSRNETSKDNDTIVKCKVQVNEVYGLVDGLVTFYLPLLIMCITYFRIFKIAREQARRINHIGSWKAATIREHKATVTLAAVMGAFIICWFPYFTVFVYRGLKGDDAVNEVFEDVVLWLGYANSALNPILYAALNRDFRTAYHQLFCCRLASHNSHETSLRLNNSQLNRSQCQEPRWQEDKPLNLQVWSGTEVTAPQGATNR
test method notes: Evaluated in vitro for histamine H2 receptor antagonist activity by using histamine-stimulated chronotropic response of the guinea pig atrium
Format: functional, tissue-based
assay conditions: Cardiac atrium
measurement type: Kb (nM)

[
  {
    "record smiles": "CCC/N=C/Nc1ccc(-c2c[nH]cn2)cc1.Cl",
    "measurement type": "Kb",
    "assay value": 32
  },
  {
    "record smiles": "CC(C)/N=C/Nc1ccc(-c2c[nH]cn2)cc1.Cl",
    "measurement type": "Kb",
    "assay value": 24
  },
  {
    "record smiles": "C/N=C(/N)Nc1cccc(-c2c[nH]cn2)c1.Cl",
    "measurement type": "Kb",
    "assay value": 4400
  },
  {
    "record smiles": "CC(C)C/N=C/Nc1ccc(-c2c[nH]cn2)cc1.Cl",
    "measurement type": "Kb",
    "assay value": 69
  }
]

* * *

test method notes: Compound was evaluated for the ionization constant (pKa) by using potentiometric titration (ionization of imidazole group)
Type: physicochemical
Catalogue of pKa values
measurement type: pKa

[
  {
    "molecule": "NCCc1c[nH]cn1 [HISTAMINE]",
    "assay value": 6.07
  },
  {
    "molecule": "CC(C)/N=C/Nc1ccc(-c2c[nH]cn2)cc1.Cl",
    "assay value": 5.58
  }
]

* * *

target: UniProtKB P47747
test method notes: Evaluated in vitro for histamine H2 receptor antagonist activity by using histamine-stimulated chronotropic response of the guinea pig atrium
Type: functional, tissue-based
assay conditions: Cardiac atrium
measurement type: Kb (µM)

[
  {
    "record smiles": "CNC(=N)c1cccc(-c2c[nH]cn2)c1.Cl",
    "measurement type": "Kb",
    "assay value": 8.7
  },
  {
    "record smiles": "C/N=C\\Nc1ccc(-c2c[nH]cn2)cc1.Cl",
    "measurement type": "Kb",
    "assay value": 1.2
  },
  {
    "record smiles": "CC/N=C/Nc1ccc(-c2c[nH]cn2)cc1.Cl",
    "measurement type": "Kb",
    "assay value": 0.019
  },
  {
    "record smiles": "C=CC/N=C/Nc1ccc(-c2c[nH]cn2)cc1.O=C(O)/C=C/C(=O)O",
    "measurement type": "Kb",
    "assay value": 0.013
  },
  {
    "record smiles": "Cl.N=C(N)c1cccc(-c2c[nH]cn2)c1",
    "measurement type": "Kb",
    "assay value": 7.2
  },
  {
    "record smiles": "Cl.N=C(N)Nc1cccc(-c2c[nH]cn2)c1",
    "measurement type": "Kb",
    "assay value": 5.5
  }
]

Source listed as ChEMBL document CHEMBL1122591.
